Assay: Oral bioavailability of PMPA and PMPA carbonates in beagle dogs
Type: in vivo
Settings: 6.2-10 mg eq of PMPA/kg, PMPA in plasma
Kindly return true (1) if reported % of PMPA IV (1 mg/kg) AUC: PMPA is no lower than 30%; return false (0) if it is lower.

Answered examples (4):
Compound	Answer Label
CC(C)COC(=O)OCOP(=O)(CO[C@H](C)Cn1cnc2c(N)ncnc21)OCOC(=O)OCC(C)C [Bis-IBu COM PMPA]	false (0)
CC(C)OC(=O)OCOP(=O)(CO[C@H](C)Cn1cnc2c(N)ncnc21)OCOC(=O)OC(C)C [Bis-isopropylCOM PMPA]	true (1)
C[C@H](Cn1cnc2c(N)ncnc21)OCP(=O)(OCOC(=O)OC(C)(C)C)OCOC(=O)OC(C)(C)C [Bis-t-Bu COM PMPA]	true (1)
C[C@H](Cn1cnc2c(N)ncnc21)OCP(=O)(OCOC(=O)NC(C)(C)C)OCOC(=O)NC(C)(C)C [Bis-tBuNCOM PMPA]	false (0)

Now examine the next entry.
Determine whether measured % of PMPA IV (1 mg/kg) AUC: PMPA meets or exceeds 30% for CCCCOC(=O)OCOP(=O)(CO[C@H](C)Cn1cnc2c(N)ncnc21)OCOC(=O)OCCCC [Bis-nBuCOM PMPA, Bis-n-butyl Oxymethyl Carbonate of PMPA]
false (0)

* * *

Assay: Enzymatic stability in dog liver homogenate (S9)
Format: in vitro ADME
Conditions: 37° C., 20 μg/mL
Assay Metric: Biological t½ (min) (Dog) Liver

Some entries whose results are on file:
Compound	Assay Metric	Test Result
CCOC(=O)OC(C)OP(=O)(CO[C@H](C)Cn1cnc2c(N)ncnc21)OC(C)OC(=O)OCC (some centres unmarked)	Biological t½ (min) (Dog) Liver	<5 min
CCCCOC(=O)OCOP(=O)(CO[C@H](C)Cn1cnc2c(N)ncnc21)OCOC(=O)OCCCC [Bis-nBuCOM PMPA, Bis-n-butyl Oxymethyl Carbonate of PMPA]	Biological t½ (min) (Dog) Liver	<5 min

For the compound `CC(C)COC(=O)OCOP(=O)(CO[C@H](C)Cn1cnc2c(N)ncnc21)OCOC(=O)OCC(C)C` , what Biological t½ (min) (Dog) Liver is on record?
<5 min

Item: `CCCN(CCC)C(=O)OCOP(=O)(CO[C@H](C)Cn1cnc2c(N)ncnc21)OCOC(=O)N(CCC)CCC`
76 min

Continue with `C[C@H](Cn1cnc2c(N)ncnc21)OCP(=O)(OCOC(=O)OC(C)(C)C)OCOC(=O)OC(C)(C)C`
14.9 min

* * *

Format: in vitro ADME
Conditions: 37° C., 20 μg/mL
The entries below come with measured Biological t½ (min) (Dog) Plasma values attached.
Form entry: value (min) — number only.

Compound	Biological t½ (min) (Dog) Plasma
CCOC(=O)OCOP(=O)(CO[C@H](C)Cn1cnc2c(N)ncnc21)OCOC(=O)OCC [Bis-EtCOM PMPA, Bis-ethyl Oxymethyl Carbonate of PMPA]	16.6

Turning to the following compound.
I would be grateful if you could share the reported Biological t½ (min) (Dog) Plasma for `CC(C)OC(=O)OCOP(=O)(CO[C@H](C)Cn1cnc2c(N)ncnc21)OCOC(=O)OC(C)C` .
20.5

* * *

Test system: HIV-1 (IIIB)
Experiment: microbe, parasite or virus in culture
Type: cell-based
Conditions: HIV-1 (IIIB), MT-2 cells; read-out: IC50 (50% inhibitory concentration)
Assay Metric: pIC50
Scale explanation: pIC50 corresponds to minus log10 of a concentration expressed in moles per litre.

Return reported pIC50; argument: `C[C@H](Cn1cnc2c(N)ncnc21)OCP(=O)(OCOC(=O)OC(C)(C)C)OCOC(=O)OC(C)(C)C`
6.70
